Hello, the source for this data is paper PMC9091619, in case you need it.

system: SW480 (colon cancer) cells; test: In vitro cytotoxicity, MTT/MTS cell viability assay, SW480; type: cell-based, human; conditions: Homo sapiens, SW480, 48 h, read-out: IC50 ± SD, SW480
pIC50: −log10 of the molar value.
Form field: pIC50 (one value per entry).

1. COc1c(O)cc2oc3cc(O)c(CC(O)C(C)(C)O)c(O)c3c(=O)c2c1CC(O)C(C)(C)O (centres unmarked) = < 4.40

The molecule listed as "COc1c(O)cc2oc3cc(O)c(CCC(C)(C)O)c(O)c3c(=O)c2c1CC=C(C)C" shows pIC50 equal to 4.64

# pIC50 of COc1c(O)cc2oc3cc(O)c(CC=C(C)C)c(O)c3c(=O)c2c1CC(O)C(C)(C)O (centres unmarked) = < 4.40

Value of measured pIC50 for the entry COc1cccc2c1C(=O)c1c(O)c3c(c(O)c1C2=O)C[C@@](O)(C(=O)CO)C[C@@H]3O[C@H]1C[C@H](N)[C@H](O)[C@H](C)O1 [ADM, Adriamycin, reference compound] : 6.96

Memo: O=c1c2ccc(O)cc2oc2cc(O)cc(O)c12 [Compound 2u, 1,3,6-Trihydroxy-9H-xanthen-9-one] , reported pIC50: < 4.40

Quick note, pIC50 for COc1c(O)cc2oc3cc(O)c(CC(O)C(C)(C)O)c(O)c3c(=O)c2c1CC=C(C)C (centres unmarked) landed at < 4.40

Form: molecule = COc1c(O)cc2oc3cc(O)c(CC=C(C)C)c(O)c3c(=O)c2c1CC1OC1(C)C (centres unmarked) ; pIC50 = < 4.40

COc1cc2oc3cc(OC)c(OC)c(CC=C(C)C)c3c(=O)c2c(OC)c1CC(OC)C(C)(C)OC (centres unmarked) yielded pIC50 of < 4.40

Record COc1cc2oc3cc(OC)c(OC)c(CCC(C)C)c3c(=O)c2c(OC)c1CC(OC)C(C)(C)OC (centres unmarked) , field pIC50: < 4.40

pIC50 reported for this molecule COc1c(O)cc2oc3cc(O)c(CC(O)C(C)(C)O)c(O)c3c(=O)c2c1CCC(C)C (centres unmarked) : < 4.40

Notebook: COc1c(O)cc2oc3cc(O)c(CCC(C)C)c(O)c3c(=O)c2c1CC(O)C(C)(C)O (centres unmarked) , pIC50 read as < 4.40

###

tested on: A-549 (lung cancer) cells; assay: In vitro cytotoxicity, MTT/MTS cell viability assay, A-549; assay type: cell-based, human; details: Homo sapiens, A549, 48 h, read-out: IC50 ± SD, A-549
pIC50: −log10 of the molar value.
readout: pIC50

Below: 3 molecules and their reported pIC50.
1) COc1c(O)cc2oc3cc(O)c(CCC(C)(C)O)c(O)c3c(=O)c2c1CC=C(C)C [Compound 2n] = 4.77
2) COc1c(O)cc2oc3cc(O)c(CC=C(C)C)c(O)c3c(=O)c2c1CC1OC1(C)C (stereo not shown) [Compound 2l] = < 4.40
3) COc1c(O)cc2oc3cc(O)c(CC(O)C(C)(C)O)c(O)c3c(=O)c2c1CC(O)C(C)(C)O (stereo not shown) [Compound 2c] = < 4.40

Now take the following molecule into account.
GET /values?item= COc1cc2oc3cc(OC)c(OC)c(CC=C(C)C)c3c(=O)c2c(OC)c1CC(OC)C(C)(C)OC (stereo not shown) [Compound 2i] &system= A-549 (lung cancer) cells returns pIC50: < 4.40
